Data provenance: patent US20190309059A1

tested.target: his-labeled human IL-13 (immunogen A) (human) (UniProt P35225)
experimental.details: FACS blocking, biotin-IL-13 on IL-13Ra2 HEK293 cells; antibody at 0.002 nM
I'd be grateful if you could share measured mean fluorescence intensity for these entries.
Answer field: number only, no words.

The value of mean fluorescence intensity measured for the binder c28A2E11 (mouse-human chimeric IL-13 antibody) (antibody, V domains shown) VH: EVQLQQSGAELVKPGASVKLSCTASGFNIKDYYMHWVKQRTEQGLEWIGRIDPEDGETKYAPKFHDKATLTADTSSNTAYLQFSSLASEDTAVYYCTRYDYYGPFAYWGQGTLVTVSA VL: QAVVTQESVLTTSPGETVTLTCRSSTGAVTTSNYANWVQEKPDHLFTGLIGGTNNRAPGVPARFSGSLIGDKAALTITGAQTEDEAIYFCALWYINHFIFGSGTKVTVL turned out to be 102

The value of mean fluorescence intensity measured for the binder 28A2E11 (lead antibody, mouse hybridoma) (antibody, V domains shown, Mouse monoclonal antibody purified from hybridoma supernatant on Protein G) VH: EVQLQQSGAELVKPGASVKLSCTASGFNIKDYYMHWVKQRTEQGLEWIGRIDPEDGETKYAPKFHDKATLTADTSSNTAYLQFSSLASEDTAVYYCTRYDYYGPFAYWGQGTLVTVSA VL: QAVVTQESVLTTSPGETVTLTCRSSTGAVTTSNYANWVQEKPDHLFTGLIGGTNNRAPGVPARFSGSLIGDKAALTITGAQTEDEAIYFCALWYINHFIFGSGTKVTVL turned out to be 76.5

The value of mean fluorescence intensity measured for the binder 70F10A10 (lead antibody, mouse hybridoma) (antibody, V domains shown) VH: QIQLQQSGAELARPGASVKLSCKASGYTFTSYGISWVKQRDGQGLEWIGEIYPRSGNTDYNEKFKGKATLTADKSSSTAYMELRSLTSEDSAVYFCSSFTTLVPTDYFDYWGQGTTLTVSS VL: DIMMSQSPSSLAVSVGEKVSMTCKSSQSLLYSSNQKNYLAWYQQKPGQSPKMLIYWASTRETGVPDRFTGSGSGTDFTLTISSVMAEDLAVYYCHQYFTYPRTFGDGTKLEVK turned out to be 76.7
